Tested on: HCC-2998 colon
Assay: NCI tumour cell line growth inhibition, 48 h
Quantity name: TGI (µM)
// note: answer is a bare numeric in µM

| Molecule | TGI [µM] |
| --- | --- |
| COC(=O)C1=C(C(=O)OC)C(C(=O)OC)C(C(=O)OC)C(C(=O)OC)(C(=O)OC)C(C(=O)OC)=C1C(=O)OC (centres undefined) | 31 |
| CCc1ccc(OCc2ccccc2C(=O)Nc2ccc3nc(C)cc(N)c3c2)cc1 | 3.24 |
| CC1OC2OC3C(OCC(O)C3O)OC(=O)[C@]34CCC(C)(C)CC3C3=CCC5[C@@]6(C)C[C@H](O)[C@H](OC7OC(CO)C(O)C(O)C7OC7OC(COC(=O)CC(C)(O)CC(=O)OC1C(OC1OC(CO)C(O)C(O)C1O)C2O)C(O)C(O)C7O)[C@@](C)(CO)C6CC[C@@]5(C)[C@]3(C)CC4 (some centres undefined) | 2.65 |

// TGI value for CN1C=C(C(N)=O)C2CC(O)[C@@](NC(=O)CS(N)(=O)=O)(C(=O)O)C2C1 (some centres undefined) : 34

* * *

System: NCI-H460 lung
Assay: NCI tumour cell line growth inhibition, 48 h
Quantity name: TGI (µM)
# output: bare number, implied unit µM

Notebook: `C(/C=C/N1CCCC1)=C\c1nc(N2CCCC2)c2ccccc2n1` , TGI read as 33.6

Recorded TGI (compound `N#Cc1c(-c2ccc(Cl)cc2)csc1NC(=O)Nc1cccc(C(F)(F)F)c1` ): 10.2

Query `Cc1cc(Nc2cc(N3CCN(C)CC3)nc(C#Cc3ccccc3)n2)n[nH]1` yields TGI of 13

# compound CCCCCCCCCCCCNC(=O)[C@H]1CSC(c2ccsc2)N1 (stereo not given in full) ; its TGI = 1.84

* * *

TGI values, listed per item
Tested on: LOX IMVI melanoma
Experiment: NCI tumour cell line growth inhibition, 48 h

| Compound | TGI |
| --- | --- |
| Cc1cc(S(N)(=O)=O)c(S/C(=N\NS(=O)(=O)c2ccccc2)c2ccc(Cl)c(Cl)c2)cc1Cl | > 100 µM |

COc1cc2c3c(c1OC)/C(=N/OS(=O)(=O)c1ccc(C)cc1)CC3N(S(=O)(=O)c1ccc(C)cc1)CC2 (stereo unspecified) yielded TGI of > 100 µM

For reference, reported TGI for `Cc1nc2cc(Nc3nc(Nc4ccc(F)cc4)nc(-c4ccc(Cl)cc4)n3)ccc2n1Cc1ccccc1` stands at > 100 µM

In plain terms, CCOC(=O)c1c(-c2ccc(OC)cc2)c(C#N)c(=S)n(C2OC(CO)C(O)C(O)C2O)c1C (stereo unspecified) has a documented TGI of > 100 µM

Form: compound = CC(=O)OC1Oc2cc(C)c(C)cc2-c2oc(=O)c(-c3ccccc3)cc21 (stereo unspecified) ; TGI = > 100 µM

The recorded TGI for entry `O=c1/c(=C/c2ccc3c(c2)OCO3)sc2nnc(Cc3ccccc3)n12` equals > 100 µM

# TGI (compound: `COc1cc(/C=C2/C(=O)N(C(=O)c3ccccc3O)N=C2C)ccc1O` ) is > 70.6 µM

Record summary for `Cc1cc(C(=O)Nc2cc(Nc3ncccc3-c3ncnc4nc[nH]c34)ccc2F)cc(C(C)(C)C#N)c1` : reported TGI = 0.338 µM

Kindly note the recorded TGI for `COc1ccc2nc3cc(Cl)ccc3c(Nc3ccc(O)c(CN4CCCC4)c3)c2c1` , which is 3.47 µM

GET /value?item= CCOP(=O)(CC1OC(CO)C(O)C1O)OCC (stereo unspecified) &field=TGI returns > 100 µM

Entry CCCCCCCCCCCCCCCCCCNC(=O)[C@H]1CSC(c2ccc(F)c(OC)c2)N1 (stereo partly specified) — recorded TGI = 2.07 µM

Looking up COc1cccc(C2CC(=O)Nc3cc4c(cc32)CCC4)c1OC (stereo unspecified) , I see its TGI listed as 16.8 µM

Reported TGI ( CC(=O)N=S(NC(=O)c1ccc(C)cc1)C(Cl)(Cl)Cl (stereo unspecified) ) = 80.1 µM

So for `C/C(N=NC(=S)N1CCCCCC1)=C1\C=CC=CN1O` , the logged TGI turned out to be > 56.3 µM

For `COc1ccc(CNC(=O)c2ccc(-c3cc(-c4nnc(C)o4)ccc3C)cc2)cc1` the compound record lists TGI as > 25 µM

* * *

Catalogue of compounds with associated TGI
Tested on: COLO 205 colon
Assay: NCI tumour cell line growth inhibition, 48 h

Examples with their reported TGI follow.
| Compound | Experimental system | TGI |
| --- | --- | --- |
| N#CC1=C(N)Oc2c(sc3c(Br)cccc23)C1c1ccc(F)cc1 (centres undefined) | COLO 205 colon | 1.69 µM |
| Cn1c(=O)c2[nH]c(Nc3cccc(Cl)c3)nc2n(C)c1=O | COLO 205 colon | > 10 µM |
| Cc1ccc(N2C(=O)/C(=C3\Sc4c(nc(C)n(C)c4=O)N3c3ccccc3)SC2=S)cc1 | COLO 205 colon | > 100 µM |

Note to self: TGI recorded for `Cc1ccc(-c2cc(C(Cl)Cl)on2)cc1` was > 100 µM

Briefly, TGI measured for COc1cc2c3c(c1OC)/C(=N/OS(=O)(=O)c1ccc(C)cc1)CC3N(S(=O)(=O)c1ccc(C)cc1)CC2 (centres undefined) : > 100 µM

compound CC(Br)CN(CC(C)Br)c1ccc2c(c1)Cc1ccccc1-2 (centres undefined) , TGI observed: 27.5 µM

GET /value?item= `C=CCN(N=O)C(=O)ON1C(=O)CCC1=O` &field=TGI returns > 100 µM

Documented TGI of O=C1[C@H]2ON(c3ccccc3)C(c3cccc([N+](=O)[O-])c3)[C@H]2C(=O)N1c1ccc(Cc2ccc(N3C(=O)[C@@H]4ON(c5ccccc5)C(c5cccc([N+](=O)[O-])c5)[C@@H]4C3=O)cc2)cc1 (some centres undefined) : > 100 µM

TGI for O=C1CN(c2ccccc2)C(=O)C1C(=O)Nc1ccc(Cl)c(Cl)c1 (centres undefined) is 20.4 µM

* * *

List of TGI values.
Tested on: SF-268 CNS
Assay: NCI tumour cell line growth inhibition, 48 h

Sure, the documented TGI for `N=C(N)SCC(=O)O` is > 100 µM

Given item `Cn1c(=O)c2[nH]c(Nc3cccc(Cl)c3)nc2n(C)c1=O` , the value recorded as its TGI is > 10 µM

What the record says about CC1(C)Oc2ccccc2N2O[C@@H]3C(=O)N(c4ccccc4)C(=O)[C@@H]3C21c1ccccc1 (stereo partly specified) : TGI is > 100 µM

Query `COc1ccccc1Cn1c2c(c3cc(O)ccc31)C(=O)c1ccccc1C2=O` yields TGI of 86.1 µM

Record summary for `BrC(Br)([P+](c1ccccc1)(c1ccccc1)c1ccccc1)[P+](c1ccccc1)(c1ccccc1)c1ccccc1` : reported TGI = > 100 µM

Lookup result for `CN(C)CCN1C(=O)N(CCN(C)C)c2c3cc(O)ccc3nc3c([N+](=O)[O-])ccc1c23` ; measured TGI: 26.7 µM

* * *

TGI reference
Test system: UACC-257 melanoma
Experiment: NCI tumour cell line growth inhibition, 48 h
Use µM as the unit, but write only the number.

Examples with their reported TGI follow.
| Compound | TGI [µM] |
| --- | --- |
| COC(=O)[C@@H]1[C@H]2CC[C@]3(C)[C@@H](OC(C)=O)CC[C@H]3[C@@H]2CC[C@H]1C1(C)SCCS1 | 53.3 |
| CN(C)CN1C(=O)/C(=N\n2c(-c3ccncc3)n[nH]c2=S)c2ccccc21 | 32.9 |
| BrC(Br)([P+](c1ccccc1)(c1ccccc1)c1ccccc1)[P+](c1ccccc1)(c1ccccc1)c1ccccc1 | 50.5 |
| CCOC(=O)/N=c1\ssc(Cl)c1Cl | 30.7 |

Note to self: TGI of `O=C(/C(=N/Nc1cn[nH]c(=O)c1Cl)c1ccccc1)c1ccccc1` with UACC-257 melanoma was 80.2

Entry `CN(C)CCN1C(=O)N(CCN(C)C)c2c3cc(O)ccc3nc3c([N+](=O)[O-])ccc1c23` , tested on UACC-257 melanoma, has a reported TGI of 29.2

Fill in: UACC-257 melanoma TGI for CC1(C)Oc2ccccc2N2O[C@@H]3C(=O)N(c4ccccc4)C(=O)[C@@H]3C21c1ccccc1 (stereo not given in full) = 78.7

Measured on UACC-257 melanoma, CCCC/C=C1\CCC(CN2CCCC2)C1=O (stereo not given) has a documented TGI of 32.8

Readout TGI for OC(CCN1CCN(CCOC(c2ccc(F)cc2)c2ccc(F)cc2)CC1)c1ccc(Br)cc1 (stereo not given) , test system UACC-257 melanoma, was 4.61

Bench note, UACC-257 melanoma: `CC12O[Te]34OC1(C)C(C)(O3)C2(C)O4` , TGI reads 33.6

* * *

As shown below, each of these compounds has a reported log10 of TGI value.
System: SR leukemia
Assay: NCI tumour cell line growth inhibition, 48 h
For clarity, the numbers are log10 values of TGI expressed in µM.

Example entries begin here.
| Compound | log10 of TGI |
| --- | --- |
| COc1ccc2nc3cc(Cl)ccc3c(Nc3ccc(O)c(CN4CCCC4)c3)c2c1 | 0.52 |
| O=C(CCl)Nc1ccc(C(=O)N/N=C/c2ccc(Cl)cc2)cc1 | 0.59 |
| COc1ccc2c(c1)CCC(CN1CCN(CCOC(c3ccccc3)c3ccccc3)CC1)C2O (configuration not stated) | 1.84 |
| O=C1C=CC(=O)c2c(O)c(N3CCN(c4ncccn4)CC3)c(Cl)c(O)c21 | 1.58 |
| CC(C)(C)C#CI1OC(=O)c2ccccc21 | 0.57 |
| Brc1ccc2[nH]cc(-c3csc(-c4c[nH]c5ccc(Br)cc45)n3)c2c1 | 0.48 |
| O=C1c2cccnc2C(=O)c2c1nc1ccccc1c2-c1ccc2c3c(nc4ccccc42)C(=O)c2cccnc2-c13 | -0.47 |
| C(/C=C/N1CCCC1)=C\c1nc(N2CCCC2)c2ccccc2n1 | 1.53 |
| CC(Br)CN(CC(C)Br)c1ccc2c(c1)Cc1ccccc1-2 (configuration not stated) | 1.17 |
| Oc1cccc(-c2nc(N3CCOCC3)c3oc4ncccc4c3n2)c1 | 0.87 |

Lookup result for `O=C1c2c(Br)sc(Br)c2[C@H]2OC(=S)N[C@@H]12` ; measured log10 of TGI: 0.72

# log10 of TGI of `CCOc1ccccc1NC(=O)CCC(=O)NN` = 1.85

// field: log10 of TGI; key: `C[N+]1(CCCCN2c3ccccc3Sc3cc(N=[N+]=[N-])ccc32)CCN(C(=O)CCNC(=O)Cc2ccc(C(=O)c3ccccc3)cc2)CC1` ; value = 1.82

The measured log10 of TGI associated with `Cc1cc(C(=O)Nc2cc(Nc3ncccc3-c3ncnc4nc[nH]c34)ccc2F)cc(C(C)(C)C#N)c1` reads 1.66
